These data points were gathered from patent US20250019450A1.

System: human IL-12Rβ1, Acro (BLI analyte) (human, UniProt P42701 24-545)
Procedure Summary: BLI (Octet), antibody on AHC tip
pKd: −log10 of the molar value.
# pKd >= 8 gives 1 (yes), anything below gives 0 (no)

I'd appreciate it if you could say whether DGL607 (bispecific antibody, V domains shown, 86B1 x 278B2) V domain 1: QVQLVESGGGLMQAGGSLRLSCALSRGIFSAYAMGWFRQVQGKEREFVSGISRSGSTTDYVDTAKGRFTISRDNARDTVYLQMNSLKPEDTAVYYCAAVTGTFPSSTYHNANAYHHWGQGTQVTVEP V domain 2: QVQLVESGGGLVQAGGSLKLSCAASGGTFSSYAMGWFRQAPGKEREFVAVIMRSGDTTAYVDSVKGRFTVSRDNAKNTVYLQMNSLKPEDAAVYFCAAGRPVTRTYYHTYTYPHDYDYWGQGTQVTVEP has pKd at least equal to 8. 0 (no)

I'd appreciate it if you could say whether DGL515 (bispecific antibody, V domains shown, 97B1 x 85B2) V domain 1: QVQLVESGGGLAQAGGSLRLSCAASGRTFSNDDMAWFRQAPGKEREFVAHIDRNAASTNYADSVKGRFTISRDNAKNTVYLQMTRLKPEDTAVYYCAADPDHFGTTWYQQYTYWGPGTQVTVEP V domain 2: QVQLVESGGGLVQAGGSLRVSCAASGRIPSLNTMAWYRQAPGKQREFVAFITNGGTTNYVDSVEGRFSISRDNTKNAVDLQMNSLKPEDTGVYYCNVQISQYPYNYWGQGTQVTVEP has pKd at least equal to 8. 0 (no)

I'd appreciate it if you could say whether DGL605 (bispecific antibody, V domains shown, 238B1 x 93B2) V domain 1: QLQLVESGGGLVQPGGSLRLSCAASGFTFSSYGMSWVRQAPGKGLEWVSYISAGGGTTTYVDFVKGRFTISRDNAKNMLYLQMNSLKPEDTAVYYCVHAADGSRGQGTQVTVEP V domain 2: QVQLVESGGGLVQPGGSLRLSCAASGFTFEPYDMSWFRQAPGKGPEWVSAIDKGGGAGATYYADSVKGRFTISRDNAKKTLYLQMKSLKPEDTAVYYCAITAGPYSDSTPRVAYRGEGTQVTVEP has pKd at least equal to 8. 1 (yes)

I'd appreciate it if you could say whether DGL534 (bispecific antibody, V domains shown, 115B1 x 19B2) V domain 1: QVQLVESGGGLVQAGGSLRLSCLASGRTSNYFMGWFRQAPGKEREFVAAISRSGGGTWYADSVKGRFAISRDNAKNTVNLQMNSLKREDTAVYYCAADRRTGTSVYTVDEYDYWGQGTQVTVEP V domain 2: QVQLVESGGGLVQPGGSLRLSCAASGFTFSNYAMSWVRQAPGKGLEWVSAINSDGTSTSYADSVKGQFTISRDNAKNTLYLQMNSLKPEDTAVYYCTKWEGDTDSDYKFKDYWGQGTQVTVEP has pKd at least equal to 8. 0 (no)

I'd appreciate it if you could say whether DGL572 (bispecific antibody, V domains shown, 233B1 x 93B2) V domain 1: QVQLVESGGGLVQAGGSLRLSCAASRSISSFNEMAWYRQAPGEQRELVATIVSTVGFTNYADSVKGRFTISRDNAKNTVYLQMNSLKAEDTAVYYCNARRISTDYWGQGTQVTVEP V domain 2: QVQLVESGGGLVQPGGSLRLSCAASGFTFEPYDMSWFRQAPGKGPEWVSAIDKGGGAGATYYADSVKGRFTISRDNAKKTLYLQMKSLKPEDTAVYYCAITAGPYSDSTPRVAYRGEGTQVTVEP has pKd at least equal to 8. 1 (yes)

I'd appreciate it if you could say whether DGL569 (bispecific antibody, V domains shown, 233B1 x 19B2) V domain 1: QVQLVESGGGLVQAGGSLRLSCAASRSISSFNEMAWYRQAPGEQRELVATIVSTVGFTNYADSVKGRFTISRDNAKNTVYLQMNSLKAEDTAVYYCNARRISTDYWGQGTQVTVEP V domain 2: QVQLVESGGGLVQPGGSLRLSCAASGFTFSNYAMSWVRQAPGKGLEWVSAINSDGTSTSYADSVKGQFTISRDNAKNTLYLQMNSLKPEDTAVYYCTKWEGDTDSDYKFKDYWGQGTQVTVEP has pKd at least equal to 8. 1 (yes)
